Source of measurements: patent US11795460B2

# System: TTR
# ASSAY INFO: EC50 and maximum editing in primary cyno hepatocytes treated with LNP formulated U-depleted Spy Cas9 mRNA and sgRNAs (Tables 20, 22)
# Assay type: cell-based, cynomolgus monkey
# Design: key: % of sequence reads with indels or substitutions over total reads
# ASSAY CONTEXT: Table 20, LNP with U-depleted Spy Cas9 mRNA and human specific sgRNAs, dose response
Strand notation (5' to 3'): a small letter for the sugar, then the base; units joined by * are phosphorothioate-linked, units joined directly phosphodiester-linked; [ ] holds rarer units or linkages, { } end groups; capitals alone tell only the bases. m = 2'-O-methyl; r = 2'-OH (RNA)
MEASURED ATTRIBUTE: Max Editing

>>> test_value("G000568: TTR sgRNA modified sequence, Human, SEQ ID No. 110; guide sequence of CR003391 (nucleic acid) guide: mG*mG*mC*rUrGrUrCrGrUrCrArCrCrArArUrCrCrCrArGrUrUrUrUrArGrAmGmCmUmAmGmAmAmAmUmAmGmCrArArGrUrUrArArArArUrArArGrGrCrUrArGrUrCrCrGrUrUrArUrCrAmAmCmUmUmGmAmAmAmAmAmGmUmGmGmCmAmCmCmGmAmGmUmCmGmGmUmGmCmU*mU*mU*mU")
87.93
>>> test_value("G000572: TTR sgRNA modified sequence, Human, SEQ ID No. 113; guide sequence of CR003385 (nucleic acid) guide: mC*mC*mC*rCrUrArCrUrCrCrUrArUrUrCrCrArCrCrArGrUrUrUrUrArGrAmGmCmUmAmGmAmAmAmUmAmGmCrArArGrUrUrArArArArUrArArGrGrCrUrArGrUrCrCrGrUrUrArUrCrAmAmCmUmUmGmAmAmAmAmAmGmUmGmGmCmAmCmCmGmAmGmUmCmGmGmUmGmCmU*mU*mU*mU")
100.31
